- Target: STEP (Homo sapiens)
- Sequence (P54829 300-555 limits assumed): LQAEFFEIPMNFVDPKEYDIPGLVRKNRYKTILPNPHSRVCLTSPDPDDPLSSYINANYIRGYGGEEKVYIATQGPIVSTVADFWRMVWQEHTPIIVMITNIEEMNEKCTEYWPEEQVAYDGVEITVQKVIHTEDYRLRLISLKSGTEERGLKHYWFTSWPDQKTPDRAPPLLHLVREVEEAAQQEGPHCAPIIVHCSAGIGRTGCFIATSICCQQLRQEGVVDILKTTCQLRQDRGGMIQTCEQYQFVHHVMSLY
- Protocol Details: Ki measurement and Lineweaver-Burk kinetic analysis of STEP inhibition
- Type: biochemical
- Run Parameters: pNPP, pH 6.0, 30 °C
Metric: inhibition pattern (Lineweaver-Burk plot)

• O=C(O)c1cc(-c2ccc(/C=C3\Sc4ccccc4C3=O)o2)ccc1O = competitive
• O=C(O)c1cccc2c1NC(c1cccc(Br)c1)C1CC(Sc3ccccc3[N+](=O)[O-])C(Cl)C21 (stereo not shown) = competitive
• O=C(O)c1cccc2c1NC(c1ccc(F)cc1)C1CC(Sc3ccccc3[N+](=O)[O-])C(Cl)C21 (stereo not shown) = competitive
• Cc1cc(C(=O)O)ccc1-c1ccc(C=C2C(=O)c3ccccc3C2=O)o1 = competitive
